// provenance: patent US7442710B2

- tgt: mGlyT-1b (Mus musculus, UniProt P28571)
- Sequence (P28571 1-651 isoform P28571-2): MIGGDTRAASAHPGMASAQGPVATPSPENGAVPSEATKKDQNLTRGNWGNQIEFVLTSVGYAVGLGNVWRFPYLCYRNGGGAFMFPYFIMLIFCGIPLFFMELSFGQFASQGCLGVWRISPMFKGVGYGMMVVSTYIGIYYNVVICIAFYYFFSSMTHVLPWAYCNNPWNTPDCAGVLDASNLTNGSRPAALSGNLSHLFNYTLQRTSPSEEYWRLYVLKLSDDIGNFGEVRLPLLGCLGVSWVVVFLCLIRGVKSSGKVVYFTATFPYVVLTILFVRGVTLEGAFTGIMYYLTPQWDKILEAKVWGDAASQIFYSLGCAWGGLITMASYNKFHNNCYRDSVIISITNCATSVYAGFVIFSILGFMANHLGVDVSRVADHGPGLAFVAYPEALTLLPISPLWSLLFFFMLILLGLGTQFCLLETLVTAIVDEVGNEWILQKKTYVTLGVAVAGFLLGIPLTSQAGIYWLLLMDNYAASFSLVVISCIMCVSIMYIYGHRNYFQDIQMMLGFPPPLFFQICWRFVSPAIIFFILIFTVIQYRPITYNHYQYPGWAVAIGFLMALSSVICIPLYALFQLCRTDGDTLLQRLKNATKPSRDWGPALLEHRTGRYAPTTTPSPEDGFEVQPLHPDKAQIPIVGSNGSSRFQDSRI
- protocolNotes: Glycine uptake inhibition assay (mGlyT-1b)
- experimentalParameters: [3H]-glycine uptake, Flp-in-CHO cells transfected with mGlyT-1b cDNA
valueType: IC50 (nM)

compound: CC(C)Oc1ccc(S(C)(=O)=O)cc1C(=O)N1CCc2ccc(Cl)c(Cl)c2C1
tgt: mGlyT-1b (Mus musculus, UniProt P28571)
resultUnit: nM
IC50: 163

I: Cc1c2c(c(C)c3c1OCO3)CN(C(=O)c1cc(S(C)(=O)=O)ccc1OC(C)C)CC2
II: C[C@H](Oc1ccc(S(C)(=O)=O)cc1C(=O)N1CCc2cc(Cl)ccc2C1)C(F)(F)F
Q: Pick one: I or II . Which has the bigger IC50 number? Field: selected label. Fill in the label of the entry you choose.
A: I
(I: 483 nM, II: 157 nM)
